biological target: Glycogen synthase kinase-3 alpha (Homo sapiens); experiment: Inhibition of human GSK-3alpha using YRRAAVPPSPSLSRHSSPHQ(pS)EDEEE as substrate measured in presence of [gamma-33P]ATP by radiometric assay
Sequence (P49840 whole entry): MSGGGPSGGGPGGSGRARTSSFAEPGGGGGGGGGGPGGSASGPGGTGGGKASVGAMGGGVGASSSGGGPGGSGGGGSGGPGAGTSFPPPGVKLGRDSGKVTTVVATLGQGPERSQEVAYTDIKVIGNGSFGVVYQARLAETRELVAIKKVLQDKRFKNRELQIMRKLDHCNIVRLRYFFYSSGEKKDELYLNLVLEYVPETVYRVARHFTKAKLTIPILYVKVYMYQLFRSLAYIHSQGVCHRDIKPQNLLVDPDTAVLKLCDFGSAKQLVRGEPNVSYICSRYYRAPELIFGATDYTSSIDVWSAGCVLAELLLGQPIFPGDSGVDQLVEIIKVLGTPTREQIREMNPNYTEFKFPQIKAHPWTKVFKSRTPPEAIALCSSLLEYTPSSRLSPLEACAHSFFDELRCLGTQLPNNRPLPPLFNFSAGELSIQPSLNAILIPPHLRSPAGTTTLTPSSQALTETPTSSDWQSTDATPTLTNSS
QUANTITY: IC50 (nM)
Give the value, in units of nM, as a plain number.

Exam item: Quick one: IC50 for c1ccc(-c2noc(CSc3nnc(-c4ccncc4)o3)n2)cc1 ?
Marked response: 451

* * *

molecular target: GSK-3beta (H350L mutant) (Homo sapiens, UniProt P49841, H350L); experiment: Inhibition of human GSK-3beta H350L mutant (2 to end residues) at 10 uM using phospho GS2 peptide as substrate after 40 mins by [gamma-33ATP] radiometric assay relative to control; settings: human GSK-3beta H350L mutant enzyme (residues 2 to end), probe phospho GS2 peptide
Sequence (P49841 whole entry, looked up, stated change not applied, the tested form may be a part): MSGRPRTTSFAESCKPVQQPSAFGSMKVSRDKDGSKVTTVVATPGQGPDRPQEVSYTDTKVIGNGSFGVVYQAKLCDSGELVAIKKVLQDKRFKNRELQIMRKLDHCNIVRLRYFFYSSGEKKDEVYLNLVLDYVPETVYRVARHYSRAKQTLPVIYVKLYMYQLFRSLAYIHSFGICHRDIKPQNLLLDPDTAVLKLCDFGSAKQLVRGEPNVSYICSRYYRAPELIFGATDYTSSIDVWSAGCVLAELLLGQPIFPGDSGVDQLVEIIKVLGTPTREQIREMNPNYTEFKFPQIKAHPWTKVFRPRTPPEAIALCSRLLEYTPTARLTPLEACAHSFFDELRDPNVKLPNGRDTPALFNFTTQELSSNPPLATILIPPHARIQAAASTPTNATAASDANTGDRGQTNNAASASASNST
QUANTITY: inhibition at 40 min, 10 µM (%)
Please respond with the number in % and leave the unit unwritten.

Cc1ccc(-c2ccc(/C=C3/NC(=S)NC3=O)o2)cc1Cl 72
Cc1ccc(-c2ccc(/C=C3/SC(=N)NC3=O)o2)cc1Cl 77
N=C1NC(=O)/C(=C\c2ccc(-c3ccc(Cl)c(Cl)c3)o2)S1 75

Exam item: Consider the compound shown here: C=CCOC(=O)c1cc(-c2ccc(/C=C3/NC(=S)NC3=O)o2)ccc1Cl What is its recorded inhibition at 40 min, 10 µM?
Marked response: 92

* * *

target: Glycogen synthase kinase-3 alpha (Homo sapiens); assay: Inhibition of human GSK-3alpha S449A mutant (2 to end residues) using phospho GS2 peptide as substrate after 40 mins in presence of [gamma-33ATP] by scintillation counting method
pIC50: −log10 of the molar value.
Please enter YES where pIC50 is greater than or equal to 7, and NO where it is lower.

Before answering, review these 2 worked examples.
COMPOUND	MEASURED_ON	CAT
CCOc1c(/C=C2/SC(=O)NC2=O)cccc1OC	Glycogen synthase kinase-3 alpha (Homo sapiens)	NO
CCCCOC(=O)c1cc(-c2ccc(/C=C3/NC(=S)NC3=O)o2)ccc1Cl	Glycogen synthase kinase-3 alpha (Homo sapiens)	NO

Exam item: Identify whether the reported pIC50 of the following compound is 7 or greater: O=C1NC(=S)N/C1=C/c1ccc(-c2ccc(C(=O)O)cc2)o1
Marked response: NO

Exam item: Also CN1C(=N)NC(=O)/C1=C\c1ccc(-c2ccc(F)cc2)o1 , if possible.
Marked response: NO

Exam item: Also check CC1=NN(c2cccc(C(=O)O)c2)C(=O)/C1=C\c1ccc(-c2ccc3c(c2)C(=O)NC3=O)o1
Marked response: NO

Exam item: Follow-up item: C=CCOC(=O)c1cc(-c2ccc(/C=C3/NC(=S)NC3=O)o2)ccc1Cl
Marked response: YES

Exam item: Same question for Cc1ccccc1OCC(=O)Nc1ccc(Oc2ccc3c(c2)C(=O)NC3=O)cc1 please.
Marked response: NO

* * *

molecular target: GSK-3beta (H350L mutant) (Homo sapiens, UniProt P49841, H350L); test: Inhibition of human GSK-3beta H350L mutant (2 to end residues) at 10 uM using phospho GS2 peptide as substrate after 40 mins by [gamma-33ATP] radiometric assay relative to control; settings: human GSK-3beta H350L mutant enzyme (residues 2 to end), probe phospho GS2 peptide
QUANTITY: inhibition at 40 min, 10 µM (%)
Answer format: numeric, % implied, no suffix.

Examples from the recorded data:
N=C1NC(=O)/C(=C\c2ccc(-c3cccc([N+](=O)[O-])c3)o2)S1 95
Cc1ccc(-c2ccc(/C=C3/SC(=N)NC3=O)o2)c([N+](=O)[O-])c1 89

Exam item: Any idea what inhibition at 40 min, 10 µM was measured for N=C1NC(=O)/C(=C\c2ccc(-c3cccc(Cl)c3)o2)S1 ?
Marked response: 88

Exam item: Repeat with O=C1NC(=S)N/C1=C/c1ccc(-c2cccc(C(=O)O)c2)o1
Marked response: 96

Exam item: Subsequent entry: N=C1NC(=O)/C(=C\c2ccc(-c3cc([N+](=O)[O-])ccc3Cl)o2)S1
Marked response: 65

Exam item: And for N=C1NC(=O)/C(=C\c2ccc(-c3ccccc3Cl)o2)S1 ?
Marked response: 95

Exam item: Then what about the compound O=C1NC(=S)N/C1=C/c1ccc(-c2ccc([N+](=O)[O-])cc2)o1 ?
Marked response: 72

Exam item: Input O=C1NC(=S)N/C1=C/c1ccc(-c2ccc(C(=O)O)cc2)o1
Marked response: 91

Exam item: Now give it for CCCOC(=O)c1cc(-c2ccc(/C=C3/NC(=S)NC3=O)o2)ccc1Cl too.
Marked response: 81

Exam item: Also O=C1NC(=O)C(c2cnc3ccccn23)=C1c1cn2c3c(cc(F)cc13)CN(C(=O)N1CCCCC1)CC2 ?
Marked response: 97
